Where do these numbers come from? They come from ChEMBL document CHEMBL4513216.

Hi there, I'd appreciate the recorded cytotoxicity at 10 µM for every entry that follows.
assay: Toxicity liver stage against HepG2, at 10uM; format: cell-based; parameters: test concentration 10 uM, cell line HepG2-A16-CD81EGFP; details: human, HepG2-A16-CD81EGFP cells; read-out: INHIBITION
One number for each entry, in %.

Below, each entry is followed by its recorded cytotoxicity at 10 µM result.
O=C(c1ccoc1)N1CCCn2nnc(COCC3CC3)c2C1    -68.5
CCCc1noc(C2CCN(C(=O)C3CCCO3)CC2)n1 (configuration not stated)    0.12
CC(=O)NCCNC(=O)c1cc(C)ccc1SC1CCCC1    -41.5
Cc1cnc(C(=O)N2CCCC(n3ccnc3C)C2)cn1 (configuration not stated)    -10.8
CC(C)C(=O)N1CCOC[C@H](Oc2ccc(C(F)(F)F)cc2)C1    4.53

Field: cytotoxicity at 10 µM. Fill in for each record below.
1. CCOc1ccc(NC(=O)Nc2cc(N3CCCCC3)ncn2)cc1
2. c1ccc(CCNc2ncnc3c2CCN(Cc2c[nH]cn2)CC3)cc1
3. O=C(NCC(Cc1cccc(F)c1)N1CCCC1=O)c1ccc[nH]c1=O (configuration not stated)
4. CCOCC1CN(CC2CC2)Cc2nn(CC3CC3)cc21 (configuration not stated)
5. CCN1CCC(N[C@@H]2CC[C@@H]2NC(=O)Cc2csc(C)n2)CC1
6. CCSc1nnc([C@@H](N)CC(C)C)o1

Ans:
[2.21, 3.16, -2.42, 0.748, 1.82, -2.39]

Q: Given the entry "Cc1cc(CN(C)C(=O)Nc2cnc3c(c2)c(C)nn3C)no1" , report its measured cytotoxicity at 10 µM.
Ans: 3.77
